The values you see were collected from paper PMC9399058.

assay: SPECT/CT biodistribution of 111In-labeled tracers in HEK-FAP tumor-bearing mice; type: in vivo, mouse; settings: mouse, in vivo, iv, 3 h p.i., 30 MBq IV, HEK-FAP mice; read-out: Kidney %ID/g (mean ± SD)
Readout Type: tissue uptake at 3 h (%ID/g)
Write down the numeric answer in %ID/g and omit the unit.

Quick check: tissue uptake at 3 h of CCCCCC(=O)N[C@H]1CSCc2cc(CSCCNC(=O)CN3CCN(CC(=O)O)CCN(CC(=O)O)CCN(CC(=O)O)CC3)cc(c2)CSC[C@@H](C(=O)O)NC(=O)[C@H](Cc2ccccc2)NC(=O)[C@H](CCC(N)=O)NC(=O)[C@H]([C@@H](C)O)NC(=O)[C@@H]2CCCN2C(=O)[C@@H]2CCCN2C1=O [^111In-FAP-2286, metal not drawn] ?
2.5

###

experiment: SPECT/CT biodistribution of 111In-labeled tracers in HEK-FAP tumor-bearing mice; assay type: in vivo, mouse; conditions: mouse, in vivo, iv, 6 h p.i., 30 MBq IV, HEK-FAP mice; read-out: Kidney %ID/g (mean ± SD)
Readout Type: tissue uptake at 6 h (%ID/g)
Write down the numeric answer in %ID/g and omit the unit.

Quick check: tissue uptake at 6 h of CCCCCC(=O)N[C@H]1CSCc2cc(CSCCNC(=O)CN3CCN(CC(=O)O)CCN(CC(=O)O)CCN(CC(=O)O)CC3)cc(c2)CSC[C@@H](C(=O)O)NC(=O)[C@H](Cc2ccccc2)NC(=O)[C@H](CCC(N)=O)NC(=O)[C@H]([C@@H](C)O)NC(=O)[C@@H]2CCCN2C(=O)[C@@H]2CCCN2C1=O [^111In-FAP-2286, metal not drawn] ?
2.2

###

assay: SPECT/CT biodistribution of 111In-labeled tracers in HEK-FAP tumor-bearing mice; type: in vivo, mouse; conditions: female, mouse, tumor and kidney, iv, 30 MBq, total radioactivity; tumor-to-kidney, 24 h p.i.; read-out: T/K ratio (mean ± SD)
Readout Type: tissue to tissue ratio at 24 h
Form rule: numeric answer, no unit written next to it.

Quick check: tissue to tissue ratio at 24 h of CCCCCC(=O)N[C@H]1CSCc2cc(CSCCNC(=O)CN3CCN(CC(=O)O)CCN(CC(=O)O)CCN(CC(=O)O)CC3)cc(c2)CSC[C@@H](C(=O)O)NC(=O)[C@H](Cc2ccccc2)NC(=O)[C@H](CCC(N)=O)NC(=O)[C@H]([C@@H](C)O)NC(=O)[C@@H]2CCCN2C(=O)[C@@H]2CCCN2C1=O [^111In-FAP-2286, metal not drawn] ?
5.9

###

experiment: SPECT/CT biodistribution of 111In-labeled tracers in HEK-FAP tumor-bearing mice; assay type: in vivo, mouse; details: mouse, in vivo, iv, 48 h p.i., 30 MBq IV, HEK-FAP mice; read-out: Kidney %ID/g (mean ± SD)
Readout Type: tissue uptake at 48 h (%ID/g)
Write down the numeric answer in %ID/g and omit the unit.

Quick check: tissue uptake at 48 h of CCCCCC(=O)N[C@H]1CSCc2cc(CSCCNC(=O)CN3CCN(CC(=O)O)CCN(CC(=O)O)CCN(CC(=O)O)CC3)cc(c2)CSC[C@@H](C(=O)O)NC(=O)[C@H](Cc2ccccc2)NC(=O)[C@H](CCC(N)=O)NC(=O)[C@H]([C@@H](C)O)NC(=O)[C@@H]2CCCN2C(=O)[C@@H]2CCCN2C1=O [^111In-FAP-2286, metal not drawn] ?
1.3

###

test: SPECT/CT biodistribution of 111In-labeled tracers in HEK-FAP tumor-bearing mice; format: in vivo, mouse; details: mouse, in vivo, heart, 3 h p.i.; read-out: Blood Pool Surrogate %ID/g (mean ± SD)
Readout Type: tissue uptake at 3 h (%ID/g)
Write down the numeric answer in %ID/g and omit the unit.

Quick check: tissue uptake at 3 h of CCCCCC(=O)N[C@H]1CSCc2cc(CSCCNC(=O)CN3CCN(CC(=O)O)CCN(CC(=O)O)CCN(CC(=O)O)CC3)cc(c2)CSC[C@@H](C(=O)O)NC(=O)[C@H](Cc2ccccc2)NC(=O)[C@H](CCC(N)=O)NC(=O)[C@H]([C@@H](C)O)NC(=O)[C@@H]2CCCN2C(=O)[C@@H]2CCCN2C1=O [^111In-FAP-2286, metal not drawn] ?
0.1

###

assay: SPECT/CT biodistribution of 111In-labeled tracers in HEK-FAP tumor-bearing mice; assay type: in vivo, mouse; conditions: mouse, in vivo, non-tumor bearing shoulder, 3 h p.i.; read-out: Shoulder %ID/g (mean ± SD)
Readout Type: tissue uptake at 3 h (%ID/g)
Write down the numeric answer in %ID/g and omit the unit.

Quick check: tissue uptake at 3 h of CCCCCC(=O)N[C@H]1CSCc2cc(CSCCNC(=O)CN3CCN(CC(=O)O)CCN(CC(=O)O)CCN(CC(=O)O)CC3)cc(c2)CSC[C@@H](C(=O)O)NC(=O)[C@H](Cc2ccccc2)NC(=O)[C@H](CCC(N)=O)NC(=O)[C@H]([C@@H](C)O)NC(=O)[C@@H]2CCCN2C(=O)[C@@H]2CCCN2C1=O [^111In-FAP-2286, metal not drawn] ?
0.4

###

test: PET/CT biodistribution of 68Ga-labeled tracers in HEK-FAP tumor-bearing mice; conditions: mouse, in vivo, 3 h after injection, 10 MBq IV, n=3
Readout Type: tissue uptake at 3 h (%ID/g)
Write down the numeric answer in %ID/g and omit the unit.

Quick check: tissue uptake at 3 h of CCCCCC(=O)N[C@H]1CSCc2cc(CSCCNC(=O)CN3CCN(CC(=O)O)CCN(CC(=O)O)CCN(CC(=O)O)CC3)cc(c2)CSC[C@@H](C(=O)O)NC(=O)[C@H](Cc2ccccc2)NC(=O)[C@H](CCC(N)=O)NC(=O)[C@H]([C@@H](C)O)NC(=O)[C@@H]2CCCN2C(=O)[C@@H]2CCCN2C1=O [^68Ga-FAP-2286, metal not drawn] ?
10.8

###

test: SPECT/CT biodistribution of 111In-labeled tracers in HEK-FAP tumor-bearing mice; format: in vivo, mouse; conditions: mouse, in vivo, 1 h p.i.; read-out: Salivary Glands %ID/g (mean ± SD)
Readout Type: tissue uptake at 1 h (%ID/g)
Write down the numeric answer in %ID/g and omit the unit.

Quick check: tissue uptake at 1 h of CCCCCC(=O)N[C@H]1CSCc2cc(CSCCNC(=O)CN3CCN(CC(=O)O)CCN(CC(=O)O)CCN(CC(=O)O)CC3)cc(c2)CSC[C@@H](C(=O)O)NC(=O)[C@H](Cc2ccccc2)NC(=O)[C@H](CCC(N)=O)NC(=O)[C@H]([C@@H](C)O)NC(=O)[C@@H]2CCCN2C(=O)[C@@H]2CCCN2C1=O [^111In-FAP-2286, metal not drawn] ?
0.6

###

test: SPECT/CT biodistribution of 111In-labeled tracers in HEK-FAP tumor-bearing mice; format: in vivo, mouse; conditions: mouse, in vivo, 3 h p.i.; read-out: Salivary Glands %ID/g (mean ± SD)
Readout Type: tissue uptake at 3 h (%ID/g)
Write down the numeric answer in %ID/g and omit the unit.

Quick check: tissue uptake at 3 h of CCCCCC(=O)N[C@H]1CSCc2cc(CSCCNC(=O)CN3CCN(CC(=O)O)CCN(CC(=O)O)CCN(CC(=O)O)CC3)cc(c2)CSC[C@@H](C(=O)O)NC(=O)[C@H](Cc2ccccc2)NC(=O)[C@H](CCC(N)=O)NC(=O)[C@H]([C@@H](C)O)NC(=O)[C@@H]2CCCN2C(=O)[C@@H]2CCCN2C1=O [^111In-FAP-2286, metal not drawn] ?
0.2

###

Experiment: SPECT/CT biodistribution of 111In-labeled tracers in HEK-FAP tumor-bearing mice
Assay type: in vivo, mouse
Conditions: mouse, in vivo, iv, 3 h p.i., 30 MBq IV, HEK-FAP mice; read-out: Liver %ID/g (mean ± SD)
Description: HEK-FAP cell line was generated using the vector pTAR to insert FAP complementary DNA by recombinase-mediated cassette exchange into the pre-tagged HEK293 cells (InSCREENeX). […] Thirty megabecquerels (30 MBq/nmol) ^111In-FAP-2286 (n = 9) or ^111In-FAPI-04 (n = 6) was injected intravenously (IV) into HEK-FAP tumor-bearing mice and the distribution of the radiotracers was assessed using the NanoSPECT/computed tomography (CT) system (Mediso). […]
Readout Type: tissue uptake at 3 h (%ID/g)
Write down the numeric answer in %ID/g and omit the unit.

Quick check: tissue uptake at 3 h of CCCCCC(=O)N[C@H]1CSCc2cc(CSCCNC(=O)CN3CCN(CC(=O)O)CCN(CC(=O)O)CCN(CC(=O)O)CC3)cc(c2)CSC[C@@H](C(=O)O)NC(=O)[C@H](Cc2ccccc2)NC(=O)[C@H](CCC(N)=O)NC(=O)[C@H]([C@@H](C)O)NC(=O)[C@@H]2CCCN2C(=O)[C@@H]2CCCN2C1=O [^111In-FAP-2286, metal not drawn] ?
0.2
